# Test system: EJ-1 cells / γδ T cells
# ASSAY_REMARKS: TNF-α production from γδ T cells stimulated by compound-pretreated EJ-1 cells (indirect antitumor action, ELISA)
# Assay type: cell-based
# CONDITION_SET: EJ-1 pretreated 4 hr with compound, 16 hr with γδ T cells, TNF-α ELISA; read-out: TNF-α50
pEC50: −log10 of the molar value.
PARAMETER_MEASURED: pEC50

A: Cc1csc(NCC(P(=O)(OCOC(=O)C(C)(C)C)OCOC(=O)C(C)(C)C)P(=O)(OCOC(=O)C(C)(C)C)OCOC(=O)C(C)(C)C)n1 [Compound 33]
B: CC(C)(C)C(=O)OCOP(=O)(OCOC(=O)C(C)(C)C)C(CNc1ccc(Cl)cn1)P(=O)(OCOC(=O)C(C)(C)C)OCOC(=O)C(C)(C)C [Compound 18]
C: CC(C)(C)C(=O)OCOP(=O)(OCOC(=O)C(C)(C)C)C(CNc1ccc(Br)cn1)P(=O)(OCOC(=O)C(C)(C)C)OCOC(=O)C(C)(C)C [Compound 4]
q: From the items above, give an ordering by pEC50 that starts at the lowest reported number. Output spec: a listing of the labels in the requested order.
a: A, C, B

###

# Test system: TFK-1 cells / γδ T cells
# ASSAY_REMARKS: TNF-α production from γδ T cells stimulated by compound-pretreated TFK-1 cells
# Assay type: cell-based
# CONDITION_SET: T-cell; TFK-1, Cholangiocarcinoma; 4 hr pretreatment, 16 hr with γδ T cells; read-out: TNF-α50
pEC50: −log10 of the molar value.
PARAMETER_MEASURED: pEC50

Form: compound = O=P(O)(O)C(CNc1nccs1)P(=O)(O)O [Compound 14, reference compound] ; pEC50 = < 4.00

###

# Tested on: HMC-1-8 cells / γδ T cells
# ASSAY_REMARKS: TNF-α production from γδ T cells stimulated by compound-pretreated HMC-1-8 cells
# Assay type: cell-based
# CONDITION_SET: T-cell; HMC-1-8, Mammary carcinoma; 4 hr pretreatment, 16 hr with γδ T cells; read-out: TNF-α50
pEC50: −log10 of the molar value.
PARAMETER_MEASURED: pEC50

Form: molecule = O=P(O)(O)C(CNc1nccs1)P(=O)(O)O [Compound 14, reference compound] ; pEC50 = < 4.00

###

# Test system: MOLT-3 cells
# ASSAY_REMARKS: MOLT-3 tumor cell growth inhibition (CellTiterGlo)
# Type: cell-based
# CONDITION_SET: Homo sapiens, 96 h; MOLT-3, Acute lymphoblastic leukemia, 4 days culture
PARAMETER_MEASURED: pIC50
The scale used: pIC50 is minus the common logarithm of the concentration in molar units.

The compound O=P(O)(O)C(CNc1nccs1)P(=O)(O)O [Compound 14, reference compound] , when measured on MOLT-3 cells, yielded pIC50 of 3.74

###

# Test system: RAMOS-RA1 cells / γδ T cells
# ASSAY_REMARKS: TNF-α production from γδ T cells stimulated by compound-pretreated RAMOS-RA1 cells
# Format: cell-based
# CONDITION_SET: RAMOS-RA1, Burkitt's lymphoma; 4 hr pretreatment, 16 hr with γδ T cells; read-out: TNF-α50
PARAMETER_MEASURED: EC50 (nM)
Write it as a number; the unit nM goes unstated.

Form: compound = CC(C)(C)C(=O)OCOP(=O)(OCOC(=O)C(C)(C)C)C(CNc1nccs1)P(=O)(OCOC(=O)C(C)(C)C)OCOC(=O)C(C)(C)C [Compound 7] ; EC50 = 140

These measurements were taken from patent US10532065B2.
